All figures here come from patent US20230374114A1.

Entries and their measured pKd follow.
Target: Biotinylated SARS-CoV-2 S1 protein (ACRO, S1N-C82E8) (UniProt P0DTC2 16-685)
Assay: BLI
For clarity, pKd is expressed as the negative log10 of concentration in mol/L.

{"columns": ["Binder", "Measured Value"],
 "data": [
  ["Ab_17 (scFv, V domains shown) VH: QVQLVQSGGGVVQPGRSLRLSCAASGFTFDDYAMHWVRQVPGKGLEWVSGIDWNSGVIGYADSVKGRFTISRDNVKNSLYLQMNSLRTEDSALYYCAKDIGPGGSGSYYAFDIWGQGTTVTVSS VL: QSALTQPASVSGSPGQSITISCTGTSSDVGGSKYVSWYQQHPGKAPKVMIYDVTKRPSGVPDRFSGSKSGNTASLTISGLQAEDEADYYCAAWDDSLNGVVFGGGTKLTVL", 9.15],
  ["S1-RBD-R3-T1-B12 Ab (Ab_31) (scFv, V domains shown) VH: QVQLVQSGAEVKKPGSSVKVSCKASGGTFSSYTISWVRQAPGQGLEWMGGIIPILGTPNYAQKFQDRVAITADKSTSTAYMELSSLRSEDTAVYYCAVGSGWYSGFDYWGQGTLVTVSS VL: NFMLTQPHSVSESPGKTVTISCTGSSGSIASNYVQWYQQRPGSAPTTVIYEDSQRPSGVPDRFSGSIDSSSNSASLTISGLKTEDEADYYCQSFHNSNPVIFGGGTKLTVL", 5.69]
]}

Here is another binder to look at.
In: Consider the binder Ab 38 (scFv, V domains shown) VH: QVTLKESGPTLVKPTQTLTLTCTFSGFSLTTSGVSVGWIRQPPGKALEWLALIHWDDDKRYSPSLRSRLTITRDTSKNQVVLTVTDMDPADTGTYYCASFIMTVYAEYFEDWGQGTLVTVSS VL: EIVLTQSPATLSVSPGERATLSCRASQSVSSNLAWYQQKPGQAPRLLMYDVSTRATGIPARFSGSGSGTEFSLTISSLQSEDFAVYYCQQRGAWPLTFGGGTKVEIK and give its measured pKd.
Out: 9.66
